System: EphB3 WT (Homo sapiens, UniProt P54753)
Sequence (P54753 34-998): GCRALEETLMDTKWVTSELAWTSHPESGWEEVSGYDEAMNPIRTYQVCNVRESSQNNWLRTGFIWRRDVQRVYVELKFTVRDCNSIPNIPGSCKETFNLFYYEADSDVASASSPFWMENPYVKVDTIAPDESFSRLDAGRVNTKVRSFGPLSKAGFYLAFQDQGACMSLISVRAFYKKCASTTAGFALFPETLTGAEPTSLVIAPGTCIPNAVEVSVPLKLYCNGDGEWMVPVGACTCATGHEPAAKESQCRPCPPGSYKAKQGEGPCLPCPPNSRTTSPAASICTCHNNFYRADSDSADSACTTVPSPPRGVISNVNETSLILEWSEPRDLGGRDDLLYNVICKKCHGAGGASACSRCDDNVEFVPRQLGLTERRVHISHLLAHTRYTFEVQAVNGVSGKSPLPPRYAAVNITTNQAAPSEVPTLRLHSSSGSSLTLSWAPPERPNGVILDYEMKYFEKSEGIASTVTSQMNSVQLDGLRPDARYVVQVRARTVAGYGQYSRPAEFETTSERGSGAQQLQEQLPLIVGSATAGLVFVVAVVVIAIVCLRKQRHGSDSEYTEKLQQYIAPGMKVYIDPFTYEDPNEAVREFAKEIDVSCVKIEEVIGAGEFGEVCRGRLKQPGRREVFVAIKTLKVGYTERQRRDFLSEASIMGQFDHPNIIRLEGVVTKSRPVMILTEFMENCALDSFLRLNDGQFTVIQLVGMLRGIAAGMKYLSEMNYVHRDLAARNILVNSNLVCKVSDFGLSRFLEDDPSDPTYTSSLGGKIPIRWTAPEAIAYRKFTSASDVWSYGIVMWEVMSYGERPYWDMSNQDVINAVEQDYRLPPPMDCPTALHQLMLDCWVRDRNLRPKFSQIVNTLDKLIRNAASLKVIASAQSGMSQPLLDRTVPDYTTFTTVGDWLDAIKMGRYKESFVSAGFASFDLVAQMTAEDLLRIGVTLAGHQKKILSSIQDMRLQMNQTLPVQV
Assay method text: EphB3 autophosphorylation in transfected HEK293 cells
Condition info: read-out: IC50, EphB3 autophosphorylation in cells
Measured property: pIC50
The value called pIC50 is obtained by taking minus log10 of the concentration in mol/L.

## Task # value lookup — system EphB3 WT (Homo sapiens, UniProt P54753), readout pIC50, item Cc1ccc(C(=O)Nc2cccc(C(F)(F)F)c2)cc1Nc1nc(-c2cccnc2)nc2c1cnn2C
## Result 6.49

Source: paper PMC7476666
